- studyTarget: T1, human CD20 (human, UniProt P11836 1-297)
- T1 sequence (looked up): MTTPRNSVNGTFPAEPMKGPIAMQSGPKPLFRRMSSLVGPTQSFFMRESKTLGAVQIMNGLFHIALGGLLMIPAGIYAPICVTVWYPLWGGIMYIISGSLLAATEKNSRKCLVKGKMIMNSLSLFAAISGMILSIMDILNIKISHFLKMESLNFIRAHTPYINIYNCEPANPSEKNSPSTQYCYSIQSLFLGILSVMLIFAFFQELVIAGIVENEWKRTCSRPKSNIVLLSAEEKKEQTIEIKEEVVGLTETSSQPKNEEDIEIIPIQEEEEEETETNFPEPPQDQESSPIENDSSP
- procedureDetails: cell-based or functional assay
parameterMeasured: % Lysis Daudi 1 µg/ml ADCC (%)
Give just the numeric value; % need not be written.

mAb 1.6.2 (antibody, human IgG1, V domains shown) VH: EVQLVQSGAEVKKPGESLKISCKGSGYSFTSYWIGWVRQMPGKGLEWMGIIYPGDSDTRYSPSFQGQVTISADKSISTAYLQWSSLKASDTAMYYCARHGDYSNIDAFDIWGQGTMVTVSS VL: DVVMTQSPLSLPVTLGQPASISCRSSQSLVYSDGNAYLNWFQQRPGQSPRRLIYKVSNWDSGVPDRFSGSGSGTDFTLKIRRVEAEDVGAYYCMQGIHCTFGPGTKVHIK    79

Endpoint output: % Lysis Daudi 1 µg/ml ADCC of mAb 1.2.1 (antibody, human IgG1, V domains shown, Human IgG1 kappa; also called 1.2.1.1; 50-001H1_2_1_1) VH: EVQLVQSGAEVKKPGESLKISCKGSGYSFTSYWIGWVRQMPGKGLEWMGIIYPGDSDTRYSPSFQGQVTISADKSISTAYLQWSSLKASDTAMYYCARLGDYYNYYGMDVWGQGTTVTVSS VL: DIVMTQTPLSSPVTLGQPASISCRSSQSLVHSDGKTYLSWLQQRPGQPPRLLIYKSSNRFSGVPDRFSGSGAGTDFTLKISRVEAEDVGVYYCVQATQFPITFGQGTRLEIK . Value?
86

// data source = patent US20070014720A1
